Before we begin, note that these IC50 values for UniProtKB P05177 originate from several publications.
Unit µM implied. Number only.

IC50 reported for this compound Cc1cc(C2=NC(C)CN2)cc2[nH]c(-c3c(NCC(O)c4cccc(Cl)c4)cc[nH]c3=O)nc12 (stereo unspecified) : 10

IC50 reported for this compound Cc1nc2c(OCc3ccccc3)cccn2c1CC#N : 2

IC50 reported for this compound COc1cccc(/C=C/C(=O)c2cccnc2)c1 : 0.752

IC50 reported for this compound O=C(O)c1ccccc1Oc1ccc(Cl)cc1NS(=O)(=O)c1ccc(Cl)c(Cl)c1 : 39.8

IC50 reported for this compound CC(C)c1nc2ccc(OCc3ccc4ccccc4n3)cc2n1-c1ccccc1 : 2.8

====

Before we begin, note that these IC50 values for Cytochrome P450 1A2 (Homo sapiens, UniProt P05177) originate from several publications.

Result for COC(=O)N1CCN(Cc2cccc(NC(=O)Nc3ccc(C)nc3)c2)CC1 , tested on Cytochrome P450 1A2 (Homo sapiens, UniProt P05177), IC50: > 10 µM

Result for Cc1cc(C)cc(NC(=O)CSc2nnc(-c3ccoc3C)n2Cc2ccco2)c1 , tested on Cytochrome P450 1A2 (Homo sapiens, UniProt P05177), IC50: > 5 µM

Result for CC(C(=O)N1CCCC1)c1ccc(-n2nc(C(F)(F)F)c3c2CCCC3)cc1 (centres undefined) , tested on Cytochrome P450 1A2 (Homo sapiens, UniProt P05177), IC50: 6 µM

Result for O=c1[nH]c2ccc(C(F)(F)F)cc2c(-c2cc(Cl)ccc2O)c1CCO , tested on Cytochrome P450 1A2 (Homo sapiens, UniProt P05177), IC50: 30 µM

Result for CS(=O)(=O)CCCOc1ccc2c(c1)CCC1(CCN(C3CCC3)CC1)O2 , tested on Cytochrome P450 1A2 (Homo sapiens, UniProt P05177), IC50: > 30 µM

Result for CC(C)N1CCN(C(=O)N2CCC(C(=O)N3CC4CCC(CC4)C3)CC2)CC1 , tested on Cytochrome P450 1A2 (Homo sapiens, UniProt P05177), IC50: > 25 µM

Result for Cc1cc2nn(Cc3cc([C@@H]4O[C@H](CO)[C@@H](O)[C@H](O)[C@H]4O)ccc3Cl)c(=O)n2cc1Cl , tested on Cytochrome P450 1A2 (Homo sapiens, UniProt P05177), IC50: > 11 µM

Result for CC(C)C(=O)N1C[C@@H]2[C@H](CNc3nc(-c4ccccn4)cs3)[C@@H]2C1 , tested on Cytochrome P450 1A2 (Homo sapiens, UniProt P05177), IC50: ≥ 7 µM

Result for O=S(=O)(NCCO)c1ccc(-c2ccnc3[nH]c(C4CC4)cc23)cc1 , tested on Cytochrome P450 1A2 (Homo sapiens, UniProt P05177), IC50: > 10 µM

Result for Cc1cc(N2CC[C@H](N3CCC[C@H]3C)C2)ccc1NC(=O)c1cc(F)ccc1C , tested on Cytochrome P450 1A2 (Homo sapiens, UniProt P05177), IC50: > 30 µM

Result for CCS(=O)(=O)c1ccc2nc(-c3ccc(F)c(-c4ccccc4)c3)[nH]c2c1 , tested on Cytochrome P450 1A2 (Homo sapiens, UniProt P05177), IC50: 3.4 µM

Result for COc1ccc(OC)c2c1c(OC)cc1c(=O)cc(-c3cccc(Cl)c3)oc12 , tested on Cytochrome P450 1A2 (Homo sapiens, UniProt P05177), IC50: 0.0611 µM

Result for O=C(c1cc(F)cc(Cl)c1)N1CCc2oc(-c3ccc(F)cn3)nc2C1 , tested on Cytochrome P450 1A2 (Homo sapiens, UniProt P05177), IC50: > 50 µM

Result for Cn1c2c(c(=O)n(C)c1=O)C(C(F)(F)F)(C(F)(F)F)NC(c1ccc(Cl)cc1)=N2 , tested on Cytochrome P450 1A2 (Homo sapiens, UniProt P05177), IC50: 4.01 µM
